# subject_of_test: phenylethanolamine N-methyltransferase
# experiment_description: inhibition of phenylethanolamine N-methyltransferase in vitro
# condition_context: enzyme inhibition dissociation constant, calculated according to Chou
parameter_measured: pKi
# log scale: pKi equals minus log10 of the concentration in mol/L

Here are 3 molecules together with their reported answers.
molecule	parameter_measured	assay_result
NC1CCc2c1ccc(Cl)c2Cl (centres unmarked) [SK & F 82520]	pKi	6.40
NC1Cc2ccc(Cl)c(Cl)c2C1 (centres unmarked) [SK & F 82566, 4,5-dichloro-2-indanamine]	pKi	7.70
NC1Cc2cc(Cl)c(Cl)cc2C1 [SK & F 50070]	pKi	6.00

QUERY: Endpoint output: pKi of NC1Cc2ccccc2C1 [SK & F 8851] . Value?
RESULT: 5.00
